Please respond with reported IC50 for every item in the list.
biological target: Jack bean urease (Canavalia ensiformis, UniProt P07374); experiment: Jack bean urease inhibition; assay type: biochemical; details: read-out: IC50 ± SEM; Table 2, derivatives 6a-6f; triplicate
Sequence (P07374 whole entry, looked up): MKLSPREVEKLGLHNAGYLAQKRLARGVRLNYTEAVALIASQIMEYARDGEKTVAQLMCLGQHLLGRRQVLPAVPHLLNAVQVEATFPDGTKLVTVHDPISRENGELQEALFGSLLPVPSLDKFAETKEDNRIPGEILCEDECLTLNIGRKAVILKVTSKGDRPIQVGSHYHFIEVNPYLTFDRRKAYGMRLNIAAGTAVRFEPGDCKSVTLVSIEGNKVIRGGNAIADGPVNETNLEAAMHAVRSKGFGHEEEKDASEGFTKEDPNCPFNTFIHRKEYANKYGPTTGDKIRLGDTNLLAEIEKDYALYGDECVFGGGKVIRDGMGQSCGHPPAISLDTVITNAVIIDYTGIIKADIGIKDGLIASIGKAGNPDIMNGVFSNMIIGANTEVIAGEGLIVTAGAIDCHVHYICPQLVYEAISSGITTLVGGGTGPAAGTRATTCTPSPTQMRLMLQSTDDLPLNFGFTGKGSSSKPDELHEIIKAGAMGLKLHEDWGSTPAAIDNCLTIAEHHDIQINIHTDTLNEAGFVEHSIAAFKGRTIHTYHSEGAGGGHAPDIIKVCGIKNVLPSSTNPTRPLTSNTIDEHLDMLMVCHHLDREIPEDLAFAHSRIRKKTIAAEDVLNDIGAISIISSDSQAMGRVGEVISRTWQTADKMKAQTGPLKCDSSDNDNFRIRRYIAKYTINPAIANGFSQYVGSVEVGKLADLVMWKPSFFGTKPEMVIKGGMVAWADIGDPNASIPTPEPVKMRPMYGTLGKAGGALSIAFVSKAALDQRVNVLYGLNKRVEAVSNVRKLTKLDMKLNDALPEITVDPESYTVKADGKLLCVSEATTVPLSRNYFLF
Give just the number in µM; leave the unit off.

Exercise: Dear colleague, please send me the reported IC50 for COc1ccc2cc(C(C)c3nc4ccc(Cl)cc4[nH]3)ccc2c1 (racemic) when you can.
Solution: 36

Exercise: Dear colleague, please send me the reported IC50 for COc1ccc2cc(C(C)c3nc4ccc(Br)cc4[nH]3)ccc2c1 (racemic) when you can.
Solution: 51

Exercise: Dear colleague, please send me the reported IC50 for COc1ccc2cc(C(C)n3cnc4ccccc43)ccc2c1 (racemic) [6f] when you can.
Solution: 39

Exercise: Dear colleague, please send me the reported IC50 for COc1ccc2cc(C(C)c3nc4ccc([N+](=O)[O-])cc4[nH]3)ccc2c1 (racemic) when you can.
Solution: 99

Exercise: Dear colleague, please send me the reported IC50 for COc1ccc2cc(C(C)c3nc4ccc(C)cc4[nH]3)ccc2c1 (racemic) when you can.
Solution: 44

Exercise: Dear colleague, please send me the reported IC50 for COc1ccc2cc(C(C)n3cnc4ccccc43)ccc2c1 (racemic) [6a] when you can.
Solution: 38
